Listed here are compounds together with their documented Dmax.
target: EGFR (Homo sapiens, UniProt P00533, DEL746-750); construct: host or cells: HCC827; experiment: EGFR PROTAC In Cell Western assay in HCC827; assay type: cell-based; details: HCC827, Table 4; HCC827, EGFR degradation, 16 hours of incubation
Sequence (P00533 with tags, fused parts or gaps DEL746-750): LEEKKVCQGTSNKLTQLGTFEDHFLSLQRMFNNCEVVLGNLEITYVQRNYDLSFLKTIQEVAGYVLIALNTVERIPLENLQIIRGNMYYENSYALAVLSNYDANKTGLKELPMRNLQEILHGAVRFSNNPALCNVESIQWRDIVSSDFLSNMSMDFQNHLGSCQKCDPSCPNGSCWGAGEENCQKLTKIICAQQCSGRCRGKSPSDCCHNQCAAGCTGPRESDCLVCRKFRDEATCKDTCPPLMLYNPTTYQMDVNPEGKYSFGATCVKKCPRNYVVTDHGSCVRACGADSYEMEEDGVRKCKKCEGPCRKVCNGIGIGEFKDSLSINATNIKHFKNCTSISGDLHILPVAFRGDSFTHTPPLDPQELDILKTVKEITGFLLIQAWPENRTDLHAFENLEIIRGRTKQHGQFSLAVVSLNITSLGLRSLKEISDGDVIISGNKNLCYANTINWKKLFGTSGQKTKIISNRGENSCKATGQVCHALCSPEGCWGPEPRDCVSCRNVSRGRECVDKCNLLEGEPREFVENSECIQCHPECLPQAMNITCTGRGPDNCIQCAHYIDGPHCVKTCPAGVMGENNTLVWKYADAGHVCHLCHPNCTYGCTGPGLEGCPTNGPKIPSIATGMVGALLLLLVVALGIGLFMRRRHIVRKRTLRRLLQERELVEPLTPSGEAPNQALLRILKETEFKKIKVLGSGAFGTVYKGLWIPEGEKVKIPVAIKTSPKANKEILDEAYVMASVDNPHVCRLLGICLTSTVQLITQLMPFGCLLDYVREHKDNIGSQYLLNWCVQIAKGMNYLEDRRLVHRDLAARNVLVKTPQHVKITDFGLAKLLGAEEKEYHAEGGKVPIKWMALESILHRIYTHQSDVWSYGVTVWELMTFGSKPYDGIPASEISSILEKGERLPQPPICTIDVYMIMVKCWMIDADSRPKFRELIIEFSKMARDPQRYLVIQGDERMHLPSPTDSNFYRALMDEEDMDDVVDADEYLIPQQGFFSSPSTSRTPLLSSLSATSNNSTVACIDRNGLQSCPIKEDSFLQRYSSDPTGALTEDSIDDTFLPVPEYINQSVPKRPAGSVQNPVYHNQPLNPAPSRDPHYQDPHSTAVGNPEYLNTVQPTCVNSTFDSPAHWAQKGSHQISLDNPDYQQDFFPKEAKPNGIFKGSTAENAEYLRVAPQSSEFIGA

Completed entries (count: 4):
[[record]]
compound = "COc1cc(N2CCN(C(=O)CN3CCC(c4ccc(NC5CCC(=O)NC5=O)cc4)CC3)CC2)ccc1Nc1ncc(C(F)(F)F)c(Nc2ccccc2C(C)=O)n1 (centres unmarked) [Compound T-47]"
quantity_measured = "Dmax"
endpoint_value = "50 to 70%"

[[record]]
compound = "COc1cc(N2CCN(C(=O)CN3CCC(c4ccc(NC5CCC(=O)NC5=O)cc4)CC3)CC2)c(-c2cnn(C)c2)cc1Nc1ncc(Cl)c(Nc2ccccc2C(C)=O)n1 (centres unmarked) [Compound T-233]"
quantity_measured = "Dmax"
endpoint_value = "50 to 70%"

[[record]]
compound = "C=CC(=O)Nc1cc(Nc2ncc(Cl)c(Nc3ccccc3C(C)=O)n2)c(OC)cc1N1CCN(C(=O)CN2CCC(c3ccc(NC4CCC(=O)NC4=O)cc3)CC2)CC1 (centres unmarked) [Compound T-91]"
quantity_measured = "Dmax"
endpoint_value = "50 to 70%"

[[record]]
compound = "C=CC(=O)Nc1cc(Nc2ncc(Cl)c(Nc3ccccc3)n2)c(OC)cc1N1CCN(C(=O)CN2CCC(c3ccc(NC4CCC(=O)NC4=O)cc3)CC2)CC1 (centres unmarked) [Compound T-335]"
quantity_measured = "Dmax"
endpoint_value = "50 to 70%"


Let me check: CNC(=O)c1ccccc1Nc1nc(Nc2ccc(N3CCN(C(=O)CN4CCC(c5ccc(NC6CCC(=O)NC6=O)cc5)CC4)CC3)cc2OC)ncc1Cl (centres unmarked) [Compound T-184] , system EGFR (Homo sapiens, UniProt P00533, DEL746-750), measured Dmax is 70 to 100%

###

molecular target: EGFR (Homo sapiens, UniProt P00533, DEL746-750); construct: host or cells: HCC827; assay: EGFR PROTAC In Cell Western assay in HCC827; type: cell-based; details: Table 4; HCC827, EGFR degradation, 16 hours of incubation
The following molecules are shown together with reported DC50 values.

[[record]]
molecule = "C=CC(=O)Nc1cc(Nc2ncc(Cl)c(Nc3ccccc3C(C)=O)n2)c(OC)cc1N1CCN(C(=O)CN2CCC(c3ccc(NC4CCC(=O)NC4=O)cc3)CC2)CC1 (stereo not shown) [Compound T-91]"
endpoint_value = "10 to 100 nM"


For reference, reported DC50 for COc1cc(N2CCN(C(=O)CN3CCC(c4ccc(NC5CCC(=O)NC5=O)cc4)CC3)C(C)C2)ccc1Nc1ncc(Cl)c(Nc2ccccc2C(C)=O)n1 (stereo not shown) [Compound T-63] stands at 100 to 1000 nM

###

test system: HCC827 (exon 19 deletion mutation); assay: Cell antiproliferative assay (CTG, 72 h), HCC827; assay type: cell-based, human; conditions: Homo sapiens, HCC827, 72 h, Table 2, HCC827 cells
Listed compounds paired with reported IC50

Some solved entries appear below for comparison.
[[record]]
compound = "COc1cc(N2CCN(C(=O)CN3CCC(c4ccc(NC5CCC(=O)NC5=O)cc4)CC3)CC2)c(C)cc1Nc1ncc(Br)c(Nc2ccccc2C(C)=O)n1 (stereo not drawn) [Compound T-59]"
quantity_measured = "IC50"
endpoint_value = "100 to 1000 nM"

[[record]]
compound = "COc1cc(N2CCN(C(=O)CN3CCC(c4ccc(NC5CCC(=O)NC5=O)cc4)CC3)CC2)ccc1Nc1ncc(Cl)c(Nc2ccccc2C(C)=O)n1 (stereo not drawn) [Compound T-12]"
quantity_measured = "IC50"
endpoint_value = "100 to 1000 nM"


Okay, next one:
IC50 recorded for this compound, COc1cc(N2CCC(N3CCN(C(=O)CCCCN4CCN(c5ccc6c(c5)C(=O)N(C5CCC(=O)NC5=O)C6=O)CC4)CC3)CC2)ccc1Nc1ncc(Cl)c(Nc2ccccc2N(C)S(C)(=O)=O)n1 (stereo not drawn) [Comparative Compound 3, reference compound] , is 10 to 100 nM

###

# key: entry, value: Dmax
molecular target: EGFR (Homo sapiens, UniProt P00533, DEL746-750); construct: host or cells: HCC827; assay: EGFR PROTAC In Cell Western assay in HCC827; format: cell-based; conditions: HCC827, Table 4; HCC827, EGFR degradation, 16 hours of incubation

Solved entries (count: 3):
[[record]]
compound = "COc1cc(N2CCN(C(=O)CN3CCC(c4ccc(NC5CCC(=O)NC5=O)cc4)CC3)CC2)ccc1Nc1ncc(Cl)c(Nc2ccccc2N(C)S(C)(=O)=O)n1 (centres unmarked) [Compound T-227]"
assay_system = "EGFR (Homo sapiens, UniProt P00533, DEL746-750)"
endpoint_value = "50 to 70%"

[[record]]
compound = "COc1cc(N2CCC(N3CCN(C(=O)CN4CCC(c5ccc(NC6CCC(=O)NC6=O)cc5)CC4)CC3)CC2)ccc1Nc1ncc(Cl)c(Nc2ccccc2N(C)S(C)(=O)=O)n1 (centres unmarked) [Compound T-211]"
assay_system = "EGFR (Homo sapiens, UniProt P00533, DEL746-750)"
endpoint_value = "50 to 70%"

[[record]]
compound = "COc1cc(N2CCN(C(=O)CN3CCC(c4ccc(NC5CCC(=O)NC5=O)cc4)CC3)CC2)ccc1Nc1ncc(Cl)c(Nc2ccccc2P(C)(C)=O)n1 (centres unmarked) [Compound T-13]"
assay_system = "EGFR (Homo sapiens, UniProt P00533, DEL746-750)"
endpoint_value = "70 to 100%"


Measured Dmax of COc1cc(C(=O)N2CCC(c3ccc(NC4CCC(=O)NC4=O)cc3)CC2)ccc1Nc1ncc(Cl)c(Nc2ccccc2C(C)=O)n1 (centres unmarked) [Compound T-130] : < 50%

Dmax recorded for this compound, COc1cc(N2CCC(N3CCN(C(=O)CCCCN4CCN(c5ccc6c(c5)C(=O)N(C5CCC(=O)NC5=O)C6=O)CC4)CC3)CC2)ccc1Nc1ncc(Cl)c(Nc2ccccc2C(C)=O)n1 (centres unmarked) [Compound T-221] , is < 50%

Kindly note the recorded Dmax for COc1cc(N2CCN(C(=O)CN3CCC(c4ccc(NC5CCC(=O)NC5=O)cc4)CC3)CC2)ncc1Nc1ncc(C(F)(F)F)c(Nc2ccccc2C(C)=O)n1 (centres unmarked) [Compound T-246] , which is 70 to 100%

###

System: PC-9 (EGFR exon 19 deletion)
Assay: Cell antiproliferative assay (CTG, 72 h), PC-9
Assay type: cell-based, human
Conditions: Homo sapiens, PC-9, 72 h, Table 2, PC-9 cells
Procedure: Test Example 1 Cell Antiproliferative Assay H1975: with EGFR: L858R/T790M double mutation; PC-9 with EGFR exon 19 deletion, HCC827 with exon 19 deletion mutation. CellCounting-Lite2.0, Trypsin EDTA, 37° C. […] • (A)96-well plates were incubated in an incubator for 72 h. The effect of the compounds was observed under an inverted microscope. • (B)25 μl of CTG solution was added to each well, the plate was put on shaker for 10 minutes and the […] of each well was read. […]
Quantity Measured: IC50

[[record]]
compound = "COc1cc(N2CCN(C(=O)CN3CCC(c4ccc(NC5CCC(=O)NC5=O)cc4)CC3)CC2)ccc1Nc1ncc(Cl)c(Nc2ccccc2C(C)(C)O)n1 (stereo not drawn)"
quantity_measured = "IC50"
endpoint_value = "100 to 1000 nM"

[[record]]
compound = "COc1cc(N2CC[C@H](NC(=O)CN3CCC(c4ccc(NC5CCC(=O)NC5=O)cc4)CC3)C2)ccc1Nc1ncc(Cl)c(Nc2ccccc2C(C)=O)n1 (stereo partly drawn)"
quantity_measured = "IC50"
endpoint_value = "≥ 1000 nM"

[[record]]
compound = "COc1cc(N2CCN(C(=O)CN3CCC(c4ccc(CN5CCC(=O)NC5=O)cc4)CC3)CC2)ccc1Nc1ncc(Cl)c(Nc2ccccc2C(C)=O)n1"
quantity_measured = "IC50"
endpoint_value = "100 to 1000 nM"

[[record]]
compound = "COc1cc(N2CCC[C@H](N(C)CN3CCC(c4ccc(NC5CCC(=O)NC5=O)cc4)CC3)C2)ccc1Nc1ncc(Cl)c(Nc2ccccc2C(C)=O)n1 (stereo partly drawn)"
quantity_measured = "IC50"
endpoint_value = "≥ 1000 nM"

[[record]]
compound = "COc1cc(N2CCN(C(=O)CN3CCC(c4ccc(NC5CCC(=O)NC5=O)cc4)CC3)C(C)C2)ccc1Nc1ncc(Cl)c(Nc2ccccc2C(C)=O)n1 (stereo not drawn)"
quantity_measured = "IC50"
endpoint_value = "100 to 1000 nM"


Form field IC50, entry COc1cc(N2CCN(C(=O)CN3CCC(c4ccccc4NC4CCC(=O)NC4=O)CC3)CC2)ccc1Nc1ncc(Cl)c(Nc2ccccc2C(C)=O)n1 (stereo not drawn) : 100 to 1000 nM
